target: CST–PP (CST–polymerase α–primase); test: CST–PP binding to template DNA (EMSA) inhibition; set-up: species or system human; settings: template 9xnoGG, Na+/K+; 25 nM CST–PP, 25 nM template; read-out: IC50binding
assay-endpoint: IC50 (nM)

1) NCCOc1cc(C(=O)Nc2cc(OCCN)c3ccccc3n2)nc(C(=O)Nc2cc(OCCN)c3ccccc3n2)c1 : 120
2) C[n+]1ccc(-c2c3nc(c(-c4cc[n+](C)cc4)c4ccc([nH]4)c(-c4cc[n+](C)cc4)c4ccc([nH]4)c(-c4cc[n+](C)cc4)c4nc2C=C4)C=C3)cc1 : 190

* * *

target: telomerase (Homo sapiens, UniProt O14746); construct: 3xFLAG (N); made in house; host or cells: HEK293T; test: Telomerase inhibition (direct primer extension, 3xTEL primer); format: biochemical
Sequence (O14746 whole entry): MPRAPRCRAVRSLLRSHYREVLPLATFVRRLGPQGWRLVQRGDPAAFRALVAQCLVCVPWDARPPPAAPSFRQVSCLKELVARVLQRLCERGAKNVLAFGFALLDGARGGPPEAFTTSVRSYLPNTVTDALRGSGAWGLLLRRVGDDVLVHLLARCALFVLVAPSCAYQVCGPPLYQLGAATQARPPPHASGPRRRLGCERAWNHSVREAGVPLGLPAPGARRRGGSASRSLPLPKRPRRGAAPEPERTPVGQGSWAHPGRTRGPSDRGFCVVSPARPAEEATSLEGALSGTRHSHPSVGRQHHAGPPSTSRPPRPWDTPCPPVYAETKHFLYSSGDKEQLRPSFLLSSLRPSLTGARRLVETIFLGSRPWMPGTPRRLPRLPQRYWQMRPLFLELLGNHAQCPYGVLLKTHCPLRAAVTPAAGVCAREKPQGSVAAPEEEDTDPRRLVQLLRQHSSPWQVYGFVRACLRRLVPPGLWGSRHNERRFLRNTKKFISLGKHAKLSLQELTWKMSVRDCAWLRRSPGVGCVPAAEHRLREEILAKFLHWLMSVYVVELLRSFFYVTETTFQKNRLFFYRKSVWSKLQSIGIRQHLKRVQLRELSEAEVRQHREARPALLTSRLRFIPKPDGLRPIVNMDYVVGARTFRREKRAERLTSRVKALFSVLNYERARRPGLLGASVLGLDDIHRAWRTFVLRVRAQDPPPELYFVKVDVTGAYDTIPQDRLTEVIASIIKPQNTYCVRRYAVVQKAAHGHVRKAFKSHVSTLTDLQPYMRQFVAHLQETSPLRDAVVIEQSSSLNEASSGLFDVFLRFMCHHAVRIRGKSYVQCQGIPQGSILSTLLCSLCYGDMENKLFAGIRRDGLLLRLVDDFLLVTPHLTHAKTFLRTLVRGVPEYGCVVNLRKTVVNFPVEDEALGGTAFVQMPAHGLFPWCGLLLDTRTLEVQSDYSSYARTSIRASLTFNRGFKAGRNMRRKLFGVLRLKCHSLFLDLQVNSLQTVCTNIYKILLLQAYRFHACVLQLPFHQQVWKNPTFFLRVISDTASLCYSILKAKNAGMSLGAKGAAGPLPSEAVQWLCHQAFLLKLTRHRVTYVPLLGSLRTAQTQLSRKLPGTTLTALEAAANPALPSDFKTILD
assay-endpoint: IC50

1) C[n+]1ccc(-c2c3nc(c(-c4cc[n+](C)cc4)c4ccc([nH]4)c(-c4cc[n+](C)cc4)c4ccc([nH]4)c(-c4cc[n+](C)cc4)c4nc2C=C4)C=C3)cc1 [TMPyP4] : 6.4 µM

* * *

target: CST–PP (CST–polymerase α–primase); assay: CST–PP binding to template DNA (EMSA) inhibition; parameters: species or system human; details: template 9xTEL, Li+; 25 nM CST–PP, 25 nM template; read-out: IC50binding
pIC50: −log10 of the molar value.
Documented pIC50 across a set of molecules
assay-endpoint: pIC50

1. C[n+]1ccc(-c2c3nc(c(-c4cc[n+](C)cc4)c4ccc([nH]4)c(-c4cc[n+](C)cc4)c4ccc([nH]4)c(-c4cc[n+](C)cc4)c4nc2C=C4)C=C3)cc1 [TMPyP4] : 6.08
2. NCCOc1cc(C(=O)Nc2cc(OCCN)c3ccccc3n2)nc(C(=O)Nc2cc(OCCN)c3ccccc3n2)c1 [PDS, pyridostatin] : 6.85

* * *

target: telomerase (Homo sapiens, UniProt O14746); construct: 3xFLAG (N); made in house; host or cells: HEK293T; assay: Telomerase inhibition (direct primer extension, 3xTEL primer); assay type: biochemical; conditions: 2 nM telomerase, 50 nM 3xTEL DNA primer, 75 mM KCl/50 mM NaCl, 30°C, 1 h; read-out: half maximal inhibitory concentration (IC50) of telomerase
pIC50: −log10 of the molar value.
assay-endpoint: pIC50

1. NCCOc1cc(C(=O)Nc2cc(OCCN)c3ccccc3n2)nc(C(=O)Nc2cc(OCCN)c3ccccc3n2)c1 : 6.28

* * *

biological target: CST–PP (CST–polymerase α–primase); assay: CST–PP C-strand synthesis inhibition; assay type: biochemical, human; settings: template 9xnoGG, Li+; 25 nM CST–PP, 25 nM template; read-out: IC50synthesis
assay-endpoint: IC50 (nM)

1. C[n+]1ccc(-c2c3nc(c(-c4cc[n+](C)cc4)c4ccc([nH]4)c(-c4cc[n+](C)cc4)c4ccc([nH]4)c(-c4cc[n+](C)cc4)c4nc2C=C4)C=C3)cc1 [TMPyP4] : 310
2. NCCOc1cc(C(=O)Nc2cc(OCCN)c3ccccc3n2)nc(C(=O)Nc2cc(OCCN)c3ccccc3n2)c1 [PDS, pyridostatin] : 180

* * *

Documented pIC50 across a set of compounds
molecular target: CST–PP (CST–polymerase α–primase); assay: CST–PP C-strand synthesis inhibition; format: biochemical, human; details: template 9xnoGG, Na+/K+; 25 nM CST–PP, 25 nM template; read-out: IC50synthesis
pIC50: −log10 of the molar value.
assay-endpoint: pIC50

1. NCCOc1cc(C(=O)Nc2cc(OCCN)c3ccccc3n2)nc(C(=O)Nc2cc(OCCN)c3ccccc3n2)c1 : 6.70
2. C[n+]1ccc(-c2c3nc(c(-c4cc[n+](C)cc4)c4ccc([nH]4)c(-c4cc[n+](C)cc4)c4ccc([nH]4)c(-c4cc[n+](C)cc4)c4nc2C=C4)C=C3)cc1 : 6.66
